B1: Caulobacter ParB omega fusion; a variant is named by its letters at X, in order, B8GW30 (parent)
chain: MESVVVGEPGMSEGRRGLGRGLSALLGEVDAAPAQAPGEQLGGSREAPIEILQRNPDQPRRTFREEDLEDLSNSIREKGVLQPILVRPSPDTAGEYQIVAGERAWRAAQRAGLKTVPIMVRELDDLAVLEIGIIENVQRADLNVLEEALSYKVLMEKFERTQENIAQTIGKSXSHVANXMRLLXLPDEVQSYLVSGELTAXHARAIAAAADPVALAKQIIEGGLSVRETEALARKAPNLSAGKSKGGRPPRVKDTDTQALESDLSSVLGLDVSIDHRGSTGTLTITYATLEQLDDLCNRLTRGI

variants of: B1; assay: one-hybrid fitness for binding NBS DNA (the Noc-binding site; scaled: cognate 1, non-cognate 0); higher = stronger binding; settings: with NBS DNA site
Whole data set: some 81,000 sequences, median “one-hybrid fitness for binding NBS DNA” near -0.1, cut for the highest 2% near 0.36. The sample as a whole holds a higher share of the highest values than the screen did.
The reader will find reported one-hybrid fitness for binding NBS DNA values listed item by item below.

>  <VARIANT_DESCRIPTOR>
QQSS

>  <RESULT>
0.436

$$$$
>  <VARIANT_DESCRIPTOR>
HNIL

>  <RESULT>
≤ 0.2

$$$$
>  <VARIANT_DESCRIPTOR>
RTWR

>  <RESULT>
0.404

$$$$
>  <VARIANT_DESCRIPTOR>
EKHS

>  <RESULT>
≤ 0.2

$$$$
>  <VARIANT_DESCRIPTOR>
QQWS

>  <RESULT>
0.397

$$$$

INPUT: Which measured one-hybrid fitness for binding NBS DNA value corresponds to QYNC ?
OUTPUT: ≤ 0.2

INPUT: Quick one: one-hybrid fitness for binding NBS DNA for QHNR ?
OUTPUT: 0.618

INPUT: // returns reported one-hybrid fitness for binding NBS DNA for input QTAR
OUTPUT: 0.768

INPUT: For the variant QHNP , what one-hybrid fitness for binding NBS DNA is on record?
OUTPUT: ≤ 0.2

INPUT: Which one-hybrid fitness for binding NBS DNA reading was recorded for the variant QYDC ?
OUTPUT: ≤ 0.2

INPUT: What value of measured one-hybrid fitness for binding NBS DNA is listed for QCDR ?
OUTPUT: 0.402

INPUT: // one-hybrid fitness for binding NBS DNA lookup, key: QQDN
OUTPUT: ≤ 0.2

INPUT: Item under review: QDDR . Reported one-hybrid fitness for binding NBS DNA?
OUTPUT: ≤ 0.2

INPUT: Would you mind telling me what one-hybrid fitness for binding NBS DNA value was observed for GMTV ?
OUTPUT: ≤ 0.2

INPUT: Can you look up the measured one-hybrid fitness for binding NBS DNA of RTWP for me?
OUTPUT: ≤ 0.2

INPUT: Using the record for QYRC , report its one-hybrid fitness for binding NBS DNA.
OUTPUT: 0.38

INPUT: # query: one-hybrid fitness for binding NBS DNA of entry QINR
OUTPUT: 0.479

INPUT: Consider the variant shown here: KCYL What is its recorded one-hybrid fitness for binding NBS DNA?
OUTPUT: ≤ 0.2
